FYI, the data here is from paper PMC7155171.

TEST TARGET: recombinant firefly luciferase (Photinus pyralis, UniProt P08659)
Sequence (P08659 whole entry): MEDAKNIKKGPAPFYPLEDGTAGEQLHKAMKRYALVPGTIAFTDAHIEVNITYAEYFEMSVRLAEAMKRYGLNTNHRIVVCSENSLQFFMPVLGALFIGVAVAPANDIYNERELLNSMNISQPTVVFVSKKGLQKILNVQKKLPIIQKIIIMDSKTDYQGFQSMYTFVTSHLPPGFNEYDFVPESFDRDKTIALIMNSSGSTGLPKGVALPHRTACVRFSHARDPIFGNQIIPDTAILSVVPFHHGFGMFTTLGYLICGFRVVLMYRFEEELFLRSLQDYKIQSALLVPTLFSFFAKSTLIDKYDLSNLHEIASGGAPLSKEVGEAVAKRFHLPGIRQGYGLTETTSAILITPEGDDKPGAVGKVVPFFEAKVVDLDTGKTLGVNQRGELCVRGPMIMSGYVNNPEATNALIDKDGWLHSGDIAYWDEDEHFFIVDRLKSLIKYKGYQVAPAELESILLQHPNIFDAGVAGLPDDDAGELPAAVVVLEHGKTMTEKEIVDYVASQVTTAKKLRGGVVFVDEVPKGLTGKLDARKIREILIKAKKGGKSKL
EXPERIMENT: biochemical
APPLIED CONDITIONS: dose response; read-out: rLuc inhibition dose response: IC50
Exercise: for every item that follows, state its recorded IC50.

# input molecule: O=C(NCCCN1CCCCC1)c1ccc(-n2ccc3ccccc32)s1 [UCSD-0795001] ; wanted: its IC50
> 25 µM

Given CC(C)N(CC(N)=O)Cc1csc(COc2ccc(F)cc2)n1 [UCSD-0845986] , state its recorded IC50.
> 25 µM

// IC50 lookup, key: Cc1cc(NC(=O)C(C)C)n(-c2nc(C)c(C)c(=O)[nH]2)n1 [UCSD-0786977]
> 50 µM

Which IC50 is reported for this molecule? Fc1ccc(CN2CCCC(c3cc4ncccc4[nH]3)C2)cc1 (stereo not shown) [UCSD-0798856]
> 25 µM

Which IC50 value is on record for CC(=O)Nc1ccc(-n2ccc3nc(N4CCCC4)ncc3c2=O)cc1 [UCSD-0795240] ?
> 25 µM

Bench note: what IC50 did COC(=O)CSCc1noc(-c2ccc(C)cc2)n1 [UCSD-0807935] show?
> 25 µM

Endpoint output: IC50 of COc1cccc(CNc2cc(C)nc(-c3ccncc3)n2)c1OC [UCSD-0704521] . Value?
> 25 µM

Need IC50 of Cc1nc(NC(=O)c2c(-n3cnnn3)sc(C)c2C)sc1C [UCSD-0786548] , thanks.
> 25 µM

Given the molecule Cc1cc(C(=O)N2CCN(c3nc4c(C(C)C)cccc4s3)CC2)no1 [UCSD-0787009] , what is its reported IC50?
> 50 µM

IC50 lookup needed for CCc1cccc(N2CCC(NC(=O)c3ccco3)CC2)c1 [UCSD-0587427] , thanks.
> 25 µM

Item Cc1csc2ncnc(N3CCC(Cn4cc(C(C)(C)N)nn4)CC3)c12 [UCSD-0838044] has what recorded IC50?
> 25 µM

Please report the recorded IC50 for Cc1nc(NC(=O)c2c(-n3cnnn3)sc3c2CCCC3)sc1C [UCSD-0786506] .
> 50 µM

Param item = CC(C)c1cc(=O)[nH]c(-n2nc(C3CC3)cc2N)n1 [UCSD-0786965] ; retrieve measured IC50.
> 25 µM

Would you mind telling me what IC50 value was observed for COc1cc(CNCc2ccnc(N3CCCCC3)c2)cc(OC)c1 [UCSD-0841255] ?
> 25 µM

Which IC50 is listed for CC(=O)N1CCN(Cc2cccc3c2sc2ccccc23)CC(O)C1 (stereo not shown) [UCSD-0830872] ?
> 25 µM

Query: IC50; subject: Cc1ncc(C(=O)NC2CCN(CCOc3ccc(Br)cc3)CC2)s1 [UCSD-0818166]
> 25 µM

Field request: IC50 | item: Cc1ccc(-c2ccc(C3CNCCO3)nc2)cc1 (stereo not shown) [UCSD-0802459]
0.00428 µM

Which IC50 reading was recorded for the molecule CCS(=O)(=O)N1CCc2ccc(NC(=O)Nc3cccc(SC)c3)cc21 [UCSD-0795016] ?
> 25 µM

Could you tell me which IC50 is on file for CCN1CC(CN(C)c2cc(C)nc(N)n2)Oc2ccccc21 (stereo not shown) [UCSD-0806866] ?
> 25 µM

Can you share its IC50? I mean this molecule: N#Cc1c(Cl)nsc1NCC1(c2ccccc2)CCC1 [UCSD-0818294]
> 25 µM

Returns the measured IC50 for the input molecule. Input: Cc1cn2c(n1)C(CNCC1=Cc3ccccc3OC1)CCC2 (stereo not shown) [UCSD-0812993]
> 25 µM

Recorded IC50 for CC(C(=O)Nc1sccc1C(N)=O)N(C)CCOc1ccccc1 (stereo not shown) [UCSD-0809872] , please?
> 50 µM

Tell me the measured IC50 of CCC1=NC(SCC(=O)c2ccccc2)c2cc(CC)sc2N1 (stereo not shown) [UCSD-0796974] , please.
> 25 µM

So what's the measured IC50 for this one? CC(C)(C)OC(=O)N1CCCN(Cc2ccon2)c2ccccc21 [UCSD-0805052]
> 25 µM

Endpoint output: IC50 of CC(C)(CO)Nc1ccc(-c2nc(-c3ccccc3F)no2)cn1 [UCSD-0833103] . Value?
0.045 µM

Quick one: IC50 for COc1ccc2cc(C3CN(C(=O)CCNC(C)=O)CCO3)ccc2c1 (stereo not shown) [UCSD-0829391] ?
9.9 µM

Find the recorded IC50 belonging to O=C(Nc1ccc(Cl)cn1)c1nn(C2CCS(=O)(=O)C2)c2c1CCCC2 (stereo not shown) [UCSD-0749819] and report it.
> 25 µM

What does the data say about its IC50? Entry: COc1cc(C)c(CN2CCc3nc4ccsc4c(=O)n3CC2)cc1C [UCSD-0801369]
> 25 µM

====

EXPERIMENT: HepG2 cytotoxicity screening (CellTiter-Glo)
APPLIED CONDITIONS: human, uninfected HepG2-A16-CD81 (EGFP) hepatocytes
Give inhibition at 2 µM for every item shown.
Answer format: numeric, % implied, no suffix.

Can you look up the measured inhibition at 2 µM of "COc1cc(Oc2ncccc2C(F)(F)F)ccc1CN1CCCC1" for me?
1.7

Could you tell me which inhibition at 2 µM is on file for "COc1ccc(OCCN2CCC(N3CCNC3=O)CC2)cc1" ?
38.5

# query: inhibition at 2 µM of entry "Cc1cccc(NCc2ncc(C(C)(C)C)o2)c1"
14.1

====

Test system: P. falciparum Dd2
EXPERIMENT: SYBR green I asexual blood stage proliferation assay (96 h)
Format: cell-based, Plasmodium falciparum
APPLIED CONDITIONS: Plasmodium falciparum, DD2; Sybr Green I, 11-pt dose response, 96hr; read-out: CDD P. falciparum Sybr Green I ABS 11-pt Reconfirmation Dose Response (96hr): Maximum inhibition (%)
I'd appreciate it if you could supply Emax values for the items below.
Give the value in % but do not write % after it.

Query (molecule): COc1ccc(N2CCCC3(C2)CN(c2nncs2)CCO3)cc1 (stereo not drawn) [DDD01034473] ; field requested: Emax
95.3

Entry COc1ccc(C(C)NCc2ccsc2)cc1Cn1cccn1 (stereo not drawn) [DDD01061827] has what Emax?
58.7

Form field: reported Emax of CCN1CCN(c2ccc(F)cc2C(C)NCc2ccccn2)CC1 (stereo not drawn) [DDD01070491]
73.8

Emax for Cc1ccc(C2(CN(C)Cc3sccc3C)CCNCC2)nc1 [DDD01252463] ?
57.2

Item CN1[C@H](Cn2cccn2)C[C@@H]2CN(Cc3cccs3)CC[C@@H]21 [DDD01032287] has what recorded Emax?
67.6

What does the data say about its Emax? Entry: CCN1CCN(C[C@@H]2CN(c3ncc(Cl)cc3F)C[C@@H]2CO)CC1 [DDD01246828]
100

Find the recorded Emax belonging to COc1ccccc1C1(NCc2c(C)nc3c(C)cccn23)CCCC1 [DDD01057239] and report it.
68.9

Would you kindly share the measured Emax for Cc1ccc(C(CCNCCCN(C)C)C2CCOC(C)(C)C2)cc1 (stereo not drawn) [DDD01026662] ?
97.5

Consider the molecule shown here: O=C(c1scc2c1OCCO2)N1CCOC(CCc2ccccc2)C1 (stereo not drawn) [DDD01250278] What is its recorded Emax?
101

I would be grateful if you could share the reported Emax for Cc1cccc(C)c1Nc1noc2c1CN(C(=O)c1ccnn1C)CC2 [DDD01056796] .
96.3

I am curious: what Emax value has been reported for CCOc1ccc(Br)cc1C1CCCCN1 (stereo not drawn) [DDD01034784] ?
65.2

What does the data say about its Emax? Entry: CC(C)n1ccnc1C1CCCN(c2ccnc3ccccc23)C1 (stereo not drawn) [DDD01257414]
98.5

Query: Emax; subject: O=C(CN1CCCC(c2ccn[nH]2)C1)Nc1nc2c(s1)CCCC2 (stereo not drawn) [DDD01079490]
69.6

Given Oc1ccc(Cl)cc1CNCc1cccc(C(F)(F)F)c1 [DDD01038245] , state its recorded Emax.
95.3

Return reported Emax; argument: CN(Cc1cc(F)cc2cccnc12)CC1CCN(CCO)CC1 [DDD01063806]
93.2

Recorded Emax of CC(NCC1CCN(CCO)CC1)c1ccc(C(F)(F)F)cc1 (stereo not drawn) [DDD01073719] , please.
92.8

Give the measured Emax of Clc1cccc(N[C@H]2CCCN[C@H]2Cc2ccccc2)c1 [DDD01058816] .
94.8

Give its Emax value. Item: Cc1ccc(CN2CCC3(CC2)CCN(Cc2ccco2)CC3)cc1 [DDD01031591]
84.1

So what does the record say about Emax for CC1(C)CN(C(CNC2=NCCN2)c2ccc(Cl)cc2)CCO1 (stereo not drawn) [DDD01066238] ?
50.5

State the recorded Emax for this entry: COc1cccc(CNCc2ccc(F)cc2Cl)c1O [DDD01038249]
92.8

Please look up its Emax: CC(C)c1n[nH]c(C(=O)Nc2ccccn2)c1Br [DDD01298780]
51.4

Can you share its Emax? I mean this molecule: CN(Cc1cccc(O)c1)CC1CCCN(CCc2ccc(Cl)cc2)C1 (stereo not drawn) [DDD01257948]
98

So what's the measured Emax for this one? Cc1cccc(C2(NCCCS(C)(=O)=O)CCCC2)c1 [DDD01078804]
74.2

Request the reported Emax associated with CCN1CC(c2ccccc2)CC2(CCN(Cc3ncc[nH]3)CC2)C1 (stereo not drawn) [DDD01246660]
89.2

What does the record list as Emax for OC1(CN2CCC(Oc3cccc(C(F)(F)F)c3)CC2)CCNC1 (stereo not drawn) [DDD01245291] ?
96.4

What value of measured Emax is listed for COc1ccc2[nH]c(C[C@@H]3C[C@@H](C(C)C)[C@H](CN(C)C)C=C3C)nc2c1 [DDD01025345] ?
67.2

GET /values?readout=Emax&item= COc1cccc(CNc2cc(C)nc(-c3ccncc3)n2)c1OC [DDD01073393]
75.8

So what does the record say about Emax for COc1cccc(CNCc2ccccc2Cl)c1O [DDD01038247] ?
87.5

Give the measured Emax of OCC1CCCCN1c1ccc(-c2nc(-c3ccccc3F)no2)cn1 (stereo not drawn) [DDD01257937] .
41.3

Requested field: Emax. Item: Cc1ccccc1CNCc1cc(Cl)ccc1O [DDD01038246]
97.5
